Target: T1, Alba1 F60A (Sulfolobus solfataricus, UniProt P60849 1-97, F60A)
T1 sequence: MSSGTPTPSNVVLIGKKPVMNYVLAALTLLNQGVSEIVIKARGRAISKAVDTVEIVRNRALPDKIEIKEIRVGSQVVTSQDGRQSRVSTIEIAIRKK
Assay: EMSA
reported metric: pKd
Bear in mind: pKd is minus log10 of a mol/L concentration; give just that figure.

binder 16 bp duplex (dsDNA) DNA 1: CCCGGCGTGCGGCCCG DNA 2: CGGGCCGCACGCCGGG , pKd observed: 6.15

Origin of measurements: paper PMC2841500
